Values from PubChem BioAssay (NCI)

A collection of compounds and their measured TGI
test system: 786-0 renal; experiment: NCI tumour cell line growth inhibition, 48 h

INSERT INTO measurements (compound, target_of_assay, measured_value) VALUES
  ('O=C1CNc2cc(N3CCN(c4cccc(C(F)(F)F)c4)CC3)ccc2N1', '786-0 renal', '> 100 µM'),
  ('COc1cc2c(OC)c(c1)CCCC1=CC(=O)C=C(CCC2)C1=O', '786-0 renal', '> 55.1 µM'),
  ('CCCN(CCC)C(=O)Cc1c2n(c3ccccc13)Cc1ccccc1-2', '786-0 renal', '> 100 µM');

Which TGI value is on record for CC(C)(C)OC(=O)/C=C/C(=O)O/C=C/[N+](=O)[O-] ? > 100 µM

Look up TGI: O=C(O)c1ccc(NS(=O)(=O)c2cccc3cccnc23)cc1 > 100 µM

Form field: reported TGI of COc1ccc(/C=N/n2c(C)n[nH]c2=O)cc1 > 100 µM

Which value of TGI has been reported for COc1cc2cnc3c(c2cc1OC)Cc1cc2c(cc1-3)OCO2 in the records? > 51.9 µM

# query: TGI of entry CN(C)c1ccc(/C=C2\N=C(c3ccc(N)cc3)OC2=O)cc1 > 100 µM

For COc1ccc(CN=C2Nc3ccncc3S(=O)(=O)N2c2ccccc2)cc1 , what is its reported TGI? > 100 µM

====

test system: SW-620 colon; test: NCI tumour cell line growth inhibition, 48 h
Reported TGI values are given for each entry in this list.

INSERT INTO assay_data (compound, measured_value) VALUES
  ('O=C1NC2(O)c3ccccc3C(=O)C2(O)N1c1ccccc1 (centres undefined)', '> 100 µM'),
  ('O=[N+]([O-])c1cc(Br)cc2c1[nH]c1ccc(Br)cc12', '> 100 µM'),
  ('CCCCN(CCCC)c1ccc(N=Nc2ccc(S(=O)(=O)O)cc2)cc1', '> 100 µM');

Now take the following compound into account.
Bench note: what TGI did Cc1cc(N/N=C/c2nc(-c3ccccc3)oc2C)c2cc(Cl)ccc2n1 show? 3.7 µM

====

tested on: SW-620 colon; assay: NCI tumour cell line growth inhibition, 48 h
PARAMETER: TGI

Here's what some known entries look like.
INSERT INTO results (molecule, measured_value) VALUES
  ('N#CC(C#N)=CN1CCN(C(=O)c2ccccc2)C1=S', '> 100 µM'),
  ('CC1(C)SC2C(NC(=O)Cc3ccccc3)C(=O)N2C1C(=O)O (stereo unspecified)', '> 100 µM'),
  ('CCOC(=O)c1cc2cc(CSc3ccccc3)ccc2oc1=O', '> 100 µM'),
  ('NC(=O)C1=C(c2ccccc2)c2ccccc2C1=O', '66.6 µM'),
  ('Cc1cc2c(C(N)=O)cccc2n1-c1nc2c(c(NCc3ccccc3)n1)CCCN2', '0.507 µM');

Note: attention shifts to another entry.
Fill in the blank: the reported TGI of O=C(CNC(=O)c1cccc2ccccc12)Nc1ccccc1Oc1ccccc1 is ____. > 10 µM

====

test system: OVCAR-3 ovarian; test: NCI tumour cell line growth inhibition, 48 h
molecules and their reported GI50

INSERT INTO assay_data (molecule_smiles, measured_value) VALUES
  ('Cc1ccc(NS(=O)(=O)c2cc(C)ccc2C)cc1', '2530 nM'),
  ('COc1cccc(/C=C/C(=O)c2cc3c(N)c(C(=O)Nc4cccc(Cl)c4C)sc3nc2C)c1', '854 nM'),
  ('Nc1ncc(-c2ccc(C(F)(F)F)cc2)c(NC2CCCCCC2)n1', '35900 nM'),
  ('Cc1nc(Nc2ccc(F)c(Cl)c2)sc1C(=O)O', '1820 nM'),
  ('O=[N+]([O-])c1cccc2nc3ccccc3c(NCCNCCO)c12', '11.4 nM');

# next molecule below
Fill in the blank: the reported GI50 of O=C(Nc1ccncc1)C(=O)c1cn(S(=O)(=O)c2ccccc2F)c2ccccc12 is ____. 893 nM
